Readout label: Ki (nM)
Numeric answer only, unit nM assumed.

Hi! What's the reported Ki for `CCCCCn1cc(C(=O)C(=O)NC23CC4CC(CC(C4)C2)C3)c2cc(-c3ccco3)ccc21` on UniProtKB P34972?
8.5

Hi! What's the reported Ki for `COCCn1cc(C(=O)C(=O)NC23CC4CC(CC(C4)C2)C3)c2cc(-c3ccco3)ccc21` on UniProtKB P34972?
16.1

Hi! What's the reported Ki for `O=C(NC12CC3CC(CC(C3)C1)C2)C(=O)c1cn(CCOCCF)c2ccc(-c3ccco3)cc12` on UniProtKB P34972?
6.2

Hi! What's the reported Ki for `O=C(NC12CC3CC(CC(C3)C1)C2)C(=O)c1cn(CCOCCOCCF)c2ccc(-c3ccco3)cc12` on UniProtKB P34972?
27.3
